# applied-conditions: 363.15 K; Liquid; Closed cell (Static) method
± gives the expanded uncertainty stated by the source.
Measured vapor or sublimation pressure of individual entries

Some solved cases for reference:
| chemical-string | reading |
| --- | --- |
| CCCCCCO | 7.229 ± 0.049 kPa |
| O=C1CCCCC1 | 13.05 ± 0.059 kPa |
| OC1CCCCC1 | 6.882 ± 0.039 kPa |

Continue with the compound presented below.
Supply measured vapor or sublimation pressure of CCCCCCC(C)=O in your reply.
6.397 ± 0.047 kPa

* * *

# applied-conditions: 323.15 K; Liquid; Closed cell (Static) method
property: vapor or sublimation pressure (kPa)
State just the number; it will be interpreted in kPa.

| chemical-string | vapor or sublimation pressure (kPa) |
| --- | --- |
| O=C1CCCCC1 | 2.23 |
| CCCCCCO | 0.7226 |
| CCCCCCC(C)=O | 0.8706 |

Continue with the compound presented below.
Supply measured vapor or sublimation pressure of OC1CCCCC1 in your reply.
0.7399

Entry source: the NIST ThermoML archive (doi:10.1016/j.fluid.2008.02.021)
